Hi there, I'd appreciate the recorded disease control rating PIP for every entry that follows.
Tested on: Phytophthora infestans
Format: in vivo
condition label: tomato, direct protectant foliar spray

QUERY: Look up disease control rating PIP: CC(C)(C)c1ccc(NC2COC3(CCC(C(C)(C)C)CC3)C2)cc1 (stereo not shown) [Compound 24]
RESULT: 0 (less than 50% disease control)

QUERY: # iterate: CC(C)(C)C1CCC2(CC1)CC(NC1CCCC1)CO2 (stereo not shown) [Compound 70]
RESULT: 2 (greater than 80% disease control)

QUERY: # iterate: CC1CCN(C2COC3(CCC(C(C)(C)C4CCCCC4)CC3)C2)CC1 (stereo not shown) [Compound 141]
RESULT: 0 (less than 50% disease control)

QUERY: # iterate: C1CCN(C2COC3(CCCCC3)C2)CC1 (stereo not shown) [Compound 35]
RESULT: 0 (less than 50% disease control)

QUERY: # iterate: CCC(C)CC(C)NC1COC2(CCC(C(C)(C)C)CC2)C1 (stereo not shown) [Compound 112]
RESULT: 2 (greater than 80% disease control)

QUERY: # iterate: CCCCCCN(C)C1COC2(CCC(C(C)(C)CC)CC2)C1 (stereo not shown) [Compound 60]
RESULT: 0 (less than 50% disease control)

QUERY: # iterate: CC1(CNC2COC3(CCC(C(C)(C)C)CC3)C2)CCCCC1 (stereo not shown) [Compound 120]
RESULT: 0 (less than 50% disease control)

QUERY: # iterate: Clc1ccc(CNC2COC3(CCCCC3)C2)cc1 (stereo not shown) [Compound 34]
RESULT: 0 (less than 50% disease control)

QUERY: # iterate: CCCCN(CCCC)C1COC2(CCC(C(C)(C)C)CC2)C1 (stereo not shown) [Compound 12]
RESULT: 0 (less than 50% disease control)

QUERY: # iterate: CC(C)(C)C1CCC2(CC1)CC(NC1C3CC4CC(C3)CC1C4)CO2 (stereo not shown) [Compound 86]
RESULT: 2 (greater than 80% disease control)
